Would you kindly list residual activity for each of these compounds?
- target entity: Myosin light chain kinase, smooth muscle (Homo sapiens) (UniProt Q15746)
- Sequence (Q15746 whole entry): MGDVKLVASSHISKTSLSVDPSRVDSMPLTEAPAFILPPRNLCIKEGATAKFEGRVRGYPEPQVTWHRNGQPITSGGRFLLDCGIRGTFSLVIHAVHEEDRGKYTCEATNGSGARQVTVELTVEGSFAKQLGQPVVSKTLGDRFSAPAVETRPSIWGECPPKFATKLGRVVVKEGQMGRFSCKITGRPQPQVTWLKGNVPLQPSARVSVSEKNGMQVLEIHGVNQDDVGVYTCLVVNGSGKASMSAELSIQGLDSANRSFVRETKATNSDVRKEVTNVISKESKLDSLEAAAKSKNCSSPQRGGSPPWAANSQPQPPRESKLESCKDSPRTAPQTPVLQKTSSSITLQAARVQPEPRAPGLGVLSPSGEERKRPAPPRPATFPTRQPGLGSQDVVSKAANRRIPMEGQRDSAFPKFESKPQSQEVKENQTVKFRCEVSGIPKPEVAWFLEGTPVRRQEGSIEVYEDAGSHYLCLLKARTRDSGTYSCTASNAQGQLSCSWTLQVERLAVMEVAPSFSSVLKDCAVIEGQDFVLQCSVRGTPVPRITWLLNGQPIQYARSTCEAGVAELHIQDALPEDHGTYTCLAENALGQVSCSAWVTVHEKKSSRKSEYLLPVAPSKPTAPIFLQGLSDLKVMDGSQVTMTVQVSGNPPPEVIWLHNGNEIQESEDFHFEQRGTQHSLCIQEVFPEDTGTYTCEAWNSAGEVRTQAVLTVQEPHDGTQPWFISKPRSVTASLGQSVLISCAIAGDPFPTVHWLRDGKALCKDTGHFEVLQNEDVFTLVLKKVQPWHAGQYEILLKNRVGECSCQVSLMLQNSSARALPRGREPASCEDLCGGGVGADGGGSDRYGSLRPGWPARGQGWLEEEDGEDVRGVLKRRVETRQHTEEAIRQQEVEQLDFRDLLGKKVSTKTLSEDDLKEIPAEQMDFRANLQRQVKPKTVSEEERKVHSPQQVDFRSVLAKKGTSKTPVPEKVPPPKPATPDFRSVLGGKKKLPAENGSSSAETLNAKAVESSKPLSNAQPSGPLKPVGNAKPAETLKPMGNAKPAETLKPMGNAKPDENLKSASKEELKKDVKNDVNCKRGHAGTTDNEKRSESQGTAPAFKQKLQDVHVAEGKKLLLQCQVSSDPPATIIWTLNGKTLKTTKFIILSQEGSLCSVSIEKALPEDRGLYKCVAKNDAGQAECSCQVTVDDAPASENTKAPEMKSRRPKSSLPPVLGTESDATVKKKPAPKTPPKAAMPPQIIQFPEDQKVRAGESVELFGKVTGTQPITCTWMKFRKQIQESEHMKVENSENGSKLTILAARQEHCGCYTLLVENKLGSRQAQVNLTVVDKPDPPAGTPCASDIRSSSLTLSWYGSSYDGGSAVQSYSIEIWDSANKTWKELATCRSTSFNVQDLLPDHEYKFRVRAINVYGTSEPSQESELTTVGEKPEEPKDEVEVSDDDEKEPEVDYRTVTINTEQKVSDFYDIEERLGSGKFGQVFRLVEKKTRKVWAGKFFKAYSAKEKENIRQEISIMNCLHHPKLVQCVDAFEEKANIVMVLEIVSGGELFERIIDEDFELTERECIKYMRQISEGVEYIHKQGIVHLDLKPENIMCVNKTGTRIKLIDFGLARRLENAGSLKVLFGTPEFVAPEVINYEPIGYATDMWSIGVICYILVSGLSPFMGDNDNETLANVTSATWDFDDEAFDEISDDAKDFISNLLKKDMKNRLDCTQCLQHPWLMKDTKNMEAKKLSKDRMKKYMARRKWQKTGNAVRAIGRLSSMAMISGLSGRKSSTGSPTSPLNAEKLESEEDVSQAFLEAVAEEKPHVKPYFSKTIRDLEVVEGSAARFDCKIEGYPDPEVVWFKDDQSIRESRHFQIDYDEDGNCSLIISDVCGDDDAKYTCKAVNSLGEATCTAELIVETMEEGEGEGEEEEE
- cond: at 1 µM
Answer as a quantity: numeral, then unit.

compound structure: CN[C@@H]1C[C@H]2O[C@@](C)([C@@H]1OC)n1c3ccccc3c3c4c(c5c6ccccc6n2c5c31)C(=O)NC4
residual activity: 0%
//
compound structure: COc1cc2ncnc(Nc3ccc(OCc4ccccc4)cc3)c2cc1OC
residual activity: 84%
//
compound structure: O=[N+]([O-])/C=C/c1ccc2c(c1)OCO2
residual activity: 89%

Hi! Can you tell me residual activity for each of these compounds?
1. COC(=O)[C@@]1(O)C[C@H]2O[C@]1(C)n1c3ccccc3c3c4c(c5c6ccccc6n2c5c31)C(=O)NC4
2. O=C1Nc2ccc3ncsc3c2/C1=C/c1c[nH]cn1

1%
25%
